# Test name: Acute toxicity (LD50) in mice
# Condition summary: mouse, in vivo, po, Mice (ICR), female
Where a name gives a salt, the structure may show the parent alone.
Assay metric: LD50 (mg/kg)
Give just the numeric value; mg/kg need not be written.

[in] Output LD50 of CCc1ccc(C(=O)C(C)CN2CCCCC2)cc1 (stereo not shown) [eperisone hydrochloride, Eperisone hydrochloride]
[out] 940

----------
# Test name: Acute toxicity (LD50) in dogs
# Condition summary: dog, in vivo, po, Dogs (Beagles), female
Structures can show the parent of a compound that is named as a salt.
Assay metric: LD50

[in] Output LD50 of CCc1ccc(C(=O)C(C)CN2CCCCC2)cc1 (stereo not shown) [eperisone hydrochloride, Eperisone hydrochloride]
[out] > 750 mg/kg
